test.summary: Metabolic stability in Wistar rat liver microsome assessed as intrinsic clearance measured per mg of protein incubated for 40 mins
Type: ADME
measurement.context: liver microsomes, read-out: CLH
# thresholds on microsomal CLint define classes: lower level: < 30 µL/min/mg; middle level: ≥ 30 µL/min/mg and < 60 µL/min/mg; upper level: ≥ 60 µL/min/mg

A selection of reference data follows.
>>> group("Cc1cc2cc(CNC(=O)N3CC4(CC(=O)c5cc(F)cc(F)c5O4)C3)ccc2[nH]1")
"upper level"
>>> group("Cc1cc2cc(CNC(=O)N3CC4(CC(=O)c5ccc(F)cc5O4)C3)ccc2[nH]1")
"lower level"
>>> group("Cn1cc(Cl)c2cc(CNC(=O)N3CC(COc4ccc(C(F)(F)F)cc4)C3)ccc21")
"upper level"

Please classify: Cc1cc2cc(CNC(=O)N3CC4(CC(=O)c5cc(F)ccc5O4)C3)ccc2[nH]1
middle level

Please classify: O=C(NCc1ccc2[nH]ccc2c1)N1CC(COc2ccc(C(F)(F)F)cn2)C1
upper level

Please classify: Cn1ccc2cc(CNC(=O)N3CC(COc4ccc(Cl)cc4)C3)cnc21
middle level

Please classify: O=C(NCc1ccc2[nH]c(C(F)F)cc2c1)N1CC(COc2ccc(C(F)(F)F)cc2)C1
lower level

Please classify: Cn1cc(C#N)c2cc(CNC(=O)N3CC(COc4ccc(C(F)(F)F)cc4)C3)cnc21
middle level

Please classify: O=C(NCc1ccc2[nH]c(C3CC3)cc2c1)N1CC(COc2ccc(C(F)(F)F)cc2)C1
middle level

----------
test.summary: Kinetic solubility of compound at pH 7.4 incubated for 2 hrs by UV-HPLC analysis
Type: physicochemical
measurement.context: buffer, read-out: Kinetic_solubility
test.readout: solubility kinetic at 2 h (µM)
Respond numerically; units are µM and should not be typed.

>>> observed_value("Cn1cc(C#N)c2cc(CNC(=O)N3CC(COc4ccc(C(F)(F)F)cc4)C3)ccc21")
5.3

// returns reported solubility kinetic at 2 h for input Cc1cc2cc(CNC(=O)N3CC(COc4ccc(C(F)(F)F)cc4)C3)cnc2n1C
0.6

// returns reported solubility kinetic at 2 h for input Cn1ccc2cc(CNC(=O)N3CC(COc4ccc(C(F)(F)F)cc4)C3)cnc21
2.5

// returns reported solubility kinetic at 2 h for input O=C(NCc1ccc2[nH]c(C3CC3)cc2c1)N1CC(COc2ccc(C(F)(F)F)cc2)C1
1.9

// returns reported solubility kinetic at 2 h for input Cc1ccc(OCC2CN(C(=O)NCc3ccc4[nH]c5c(c4c3)CCCC5)C2)cc1
4.4

// returns reported solubility kinetic at 2 h for input Cc1cc2cc(CNC(=O)N3CC4(CC(=O)c5cc(F)cc(F)c5O4)C3)ccc2[nH]1
30.9

// returns reported solubility kinetic at 2 h for input Cn1c(C#N)cc2cc(CNC(=O)N3CC(COc4ccc(C(F)(F)F)cc4)C3)ccc21
2.4

----------
experimental.system: Neuronal acetylcholine receptor subunit alpha-7 (Homo sapiens, UniProt P36544)
Sequence (P36544 whole entry): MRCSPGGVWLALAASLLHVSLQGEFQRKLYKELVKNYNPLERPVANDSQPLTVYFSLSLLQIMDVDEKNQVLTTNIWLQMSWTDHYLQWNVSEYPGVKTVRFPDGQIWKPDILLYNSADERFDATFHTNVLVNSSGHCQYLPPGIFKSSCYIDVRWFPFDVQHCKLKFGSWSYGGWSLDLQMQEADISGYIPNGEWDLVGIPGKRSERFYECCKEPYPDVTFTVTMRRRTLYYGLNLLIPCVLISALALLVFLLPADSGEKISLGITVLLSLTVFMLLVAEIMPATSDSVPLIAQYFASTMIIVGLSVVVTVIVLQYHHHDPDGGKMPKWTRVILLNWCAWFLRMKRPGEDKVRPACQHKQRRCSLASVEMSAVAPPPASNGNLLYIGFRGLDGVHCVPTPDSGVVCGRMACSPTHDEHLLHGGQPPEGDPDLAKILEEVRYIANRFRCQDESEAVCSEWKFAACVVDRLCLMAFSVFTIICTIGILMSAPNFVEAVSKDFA
test.summary: Positive allosteric modulator activity at human alpha7 nAChR expressed in Flp-In HEK293 cells assessed as increase in calcium influx at 10 uM incubated for 10 mins by fluorescence based analysis relative to control
Assay type: cell-based
Attribute: Emax
Show the value, then the unit it is measured in.

>>> observed_value("NC(=O)c1cc2cc(CNC(=O)N3CC(COc4ccc(C(F)(F)F)cc4)C3)ccc2[nH]1")
"0%"
>>> observed_value("Cn1c(Cl)cc2cc(CNC(=O)N3CC(COc4ccc(C(F)(F)F)cc4)C3)ccc21")
"7%"
>>> observed_value("Cc1nnc(-c2cc3cc(CNC(=O)N4CC(COc5ccc(C(F)(F)F)cc5)C4)ccc3[nH]2)o1")
"1%"
>>> observed_value("Cn1c(C#N)cc2cc(CNC(=O)N3CC(COc4ccc(C(F)(F)F)cc4)C3)ccc21")
"15%"
>>> observed_value("COCCc1cc2cc(CNC(=O)N3CC(COc4ccc(C(F)(F)F)cc4)C3)ccc2n1C")
"0%"
>>> observed_value("CC(C)n1ccc2cc(CNC(=O)N3CC(COc4ccc(C(F)(F)F)cc4)C3)ccc21")
"1%"
>>> observed_value("Cc1ccc(OCC2CN(C(=O)NCc3ccc4[nH]c5c(c4c3)CCCC5)C2)cc1")
"1%"
>>> observed_value("O=C(NCc1ccc2[nH]c(C3CC3)cc2c1)N1CC(COc2ccc(C(F)(F)F)cc2)C1")
"3%"
>>> observed_value("Cn1c(C2CC2)cc2cc(CNC(=O)N3CC(COc4ccc(C(F)(F)F)cc4)C3)cnc21")
"0%"
>>> observed_value("Cn1cc(C#N)c2cc(CNC(=O)N3CC(COc4ccc(C(F)(F)F)cc4)C3)cnc21")
"20%"

// returns reported Emax for input Cn1c(Cl)cc2cc(CNC(=O)N3CC(COc4ccc(C(F)(F)F)cc4)C3)cnc21
4%

// returns reported Emax for input COCc1cc2cc(CNC(=O)N3CC(COc4ccc(C(F)(F)F)cc4)C3)cnc2[nH]1
30%

// returns reported Emax for input O=C(NCc1ccc2c(ccn2CC(F)(F)F)c1)N1CC(COc2ccc(C(F)(F)F)cc2)C1
3%

----------
test.summary: Drug concentration in NMRI mouse brain at 1 mg/kg, ip measured after 1 hr by HPLC-MS/MS analysis
Type: ADME, organism-based
measurement.context: read-out: Ct
Attribute: concentration at 1 h
Respond numerically; units are ng/g and should not be typed.

Consider the worked cases shown below.
>>> observed_value("Cn1ccc2cc(CNC(=O)N3CC4(CC(=O)c5ccc(F)cc5O4)C3)ccc21")
29
>>> observed_value("O=C(NCc1ccc2[nH]ccc2c1)N1CC(COc2ccc(C(F)(F)F)c(F)c2)C1")
201

Would you kindly look at the next entry?
// returns reported concentration at 1 h for input Cn1ccc2cc(CNC(=O)N3CC(COc4ccc(C(F)(F)F)cc4)C3)cnc21
46.8

----------
test.summary: Ratio of drug concentration in brain to plasma in NMRI mouse plasma at 1 mg/kg, ip measured after 1 hr by HPLC-MS/MS analysis
Type: ADME, organism-based
test.readout: Kp at 1 h
Form field (numeric): enter value without unit.

Consider the worked cases shown below.
>>> observed_value("Cn1ccc2cc(CNC(=O)N3CC(COc4ccc(C(F)(F)F)cc4)C3)cnc21")
0.26
>>> observed_value("O=C(NCc1ccc2[nH]ccc2c1)N1CC(COc2ccc(C(F)(F)F)c(F)c2)C1")
1.2

// returns reported Kp at 1 h for input Cn1ccc2cc(CNC(=O)N3CC4(CC(=O)c5ccc(F)cc5O4)C3)ccc21
0.27

----------
test.summary: Metabolic stability in NMRI mouse liver microsome assessed as intrinsic clearance measured per mg of protein incubated for 40 mins
Type: ADME
measurement.context: liver microsomes, read-out: CLH
Attribute: microsomal CLint
Respond numerically; units are µL/min/mg and should not be typed.

>>> observed_value("Cn1cc(Cl)c2cc(CNC(=O)N3CC(COc4ccc(C(F)(F)F)cc4)C3)ccc21")
140
>>> observed_value("Cn1ccc2cc(CNC(=O)N3CC(COc4ccc(Cl)cc4)C3)cnc21")
57
>>> observed_value("O=C(NCc1ccc2[nH]ccc2c1)N1CC(COc2ccc(C(F)(F)F)cc2F)C1")
47
>>> observed_value("O=C(NCc1ccc2[nH]ccc2c1)N1CC(COc2ccc(C(F)(F)F)c(F)c2)C1")
36

// returns reported microsomal CLint for input Cc1cc2cc(CNC(=O)N3CC4(CC(=O)c5cc(F)ccc5O4)C3)ccc2[nH]1
51

----------
test.summary: Metabolic stability in human Hepatocyte assessed as intrinsic clearance measured per million cells incubated for 40 mins
Assay type: ADME, cell-based
measurement.context: hepatocytes, read-out: CLH
test.readout: hepatocyte CLint

// returns reported hepatocyte CLint for input Cn1ccc2cc(CNC(=O)N3CC4(CC(=O)c5ccc(F)cc5O4)C3)ccc21
10.3 µL/min/1e6 cells

----------
test.summary: Ratio of drug concentration in brain to plasma in NMRI mouse plasma at 10 mg/kg, ip measured after 1 hr by HPLC-MS/MS analysis
Type: ADME, organism-based
Attribute: Kp at 1 h

>>> observed_value("O=C(NCc1ccc2[nH]ccc2c1)N1CC(COc2ccc(C(F)(F)F)c(F)c2)C1")
0.66
>>> observed_value("Cn1ccc2cc(CNC(=O)N3CC(COc4ccc(C(F)(F)F)cc4)C3)cnc21")
0.22

Would you kindly look at the next entry?
// returns reported Kp at 1 h for input Cn1ccc2cc(CNC(=O)N3CC4(CC(=O)c5ccc(F)cc5O4)C3)ccc21
0.31

----------
Attribute: log10 solubility kinetic at 2 h
test.summary: Kinetic solubility of compound at pH 7.4 incubated for 2 hrs by UV-HPLC analysis
Format: physicochemical
measurement.context: buffer, read-out: Kinetic_solubility
Each number you see is log10 of solubility kinetic at 2 h, and the unit inside the log is µM.

Consider the worked cases shown below.
>>> observed_value("Cc1cc2cc(CNC(=O)N3CC(COc4ccc(C(F)(F)F)cc4)C3)ccc2[nH]1")
0.30
>>> observed_value("Cc1ccc(OCC2CN(C(=O)NCc3ccc4[nH]c(C)c(C)c4c3)C2)cc1")
1.13
>>> observed_value("Cc1cc2cc(CNC(=O)N3CC4(CC(=O)c5ccccc5O4)C3)ccc2[nH]1")
1.71
>>> observed_value("Cn1ccc2cc(CNC(=O)N3CC(COc4ccc(C(F)(F)F)c(F)c4)C3)ccc21")
-0.70
>>> observed_value("O=C1CC2(CN(C(=O)NCc3ccc4[nH]c(Cl)cc4c3)C2)Oc2ccccc21")
1.32

// returns reported log10 solubility kinetic at 2 h for input O=C1CC2(CN(C(=O)NCc3ccc4[nH]ccc4c3)C2)Oc2ccccc21
1.94

// returns reported log10 solubility kinetic at 2 h for input O=C(NCc1cnc2[nH]ccc2c1)N1CC(COc2ccc(C(F)(F)F)cc2)C1
1.70

// returns reported log10 solubility kinetic at 2 h for input O=C(NCc1ccc2[nH]c(C(F)F)cc2c1)N1CC(COc2ccc(C(F)(F)F)cc2)C1
1.61

// returns reported log10 solubility kinetic at 2 h for input O=C(NCc1ccc2[nH]ccc2c1)N1CC(COc2ccc(C(F)(F)F)cn2)C1
1.89

// returns reported log10 solubility kinetic at 2 h for input Cn1c(Cl)cc2cc(CNC(=O)N3CC(COc4ccc(C(F)(F)F)cc4)C3)ccc21
-0.70
